Just for reference, the supplement of paper PMC10126150 is where these values come from.

- System: ATP;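 also: ATP exposure 15 min at 22 °C before imaging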
- EXPERIMENTAL PROTOCOL: switch fluorescence ratio, 500 uM ATP over buffer (Cy3 cluster intensity, sum of 5 cycles each) (fold (ratio)); higher = stronger signal-on switching upon ATP binding; sequences stand for … in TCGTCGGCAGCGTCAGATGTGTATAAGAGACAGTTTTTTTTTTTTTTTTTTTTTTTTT…TC
- SETTINGS: aptamer strand: ATP DNA aptamer (quencher-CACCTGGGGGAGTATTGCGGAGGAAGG + anchor), 100 nM annealed; ATP concentration: 500 uM
READOUT LABEL: switch fluorescence ratio

INSERT INTO measurements (sequence, readout_label, recorded_value) VALUES
  ('AATCTAACGT', 'switch fluorescence ratio', 0.994),
  ('TTCGTTCTTT', 'switch fluorescence ratio', 1.01),
  ('GGTGCGTTGG', 'switch fluorescence ratio', 1.03),
  ('TTATTCTCAC', 'switch fluorescence ratio', 1.03),
  ('TTCGTCCTGG', 'switch fluorescence ratio', 1.01),
  ('TCGTTGGTTT', 'switch fluorescence ratio', 0.994),
  ('AGTGCTGATG', 'switch fluorescence ratio', 0.998),
  ('TTTTAGTTAC', 'switch fluorescence ratio', 1.07),
  ('GCGTAAAGGT', 'switch fluorescence ratio', 1.01),
  ('AGAATGAGGT', 'switch fluorescence ratio', 0.98),
  ('AGTGGGAGTA', 'switch fluorescence ratio', 1.05),
  ('GTGGGGTCTT', 'switch fluorescence ratio', 1),
  ('TACGGAAGGT', 'switch fluorescence ratio', 1.06),
  ('TGGGATACGT', 'switch fluorescence ratio', 1.55),
  ('TAGAGGAG', 'switch fluorescence ratio', 1.01),
  ('TATAAAAGTG', 'switch fluorescence ratio', 0.958),
  ('CGGGGGTTAG', 'switch fluorescence ratio', 0.999),
  ('AGATTAGGAC', 'switch fluorescence ratio', 0.971),
  ('TAACCGAGAT', 'switch fluorescence ratio', 1.01),
  ('TGTGGCACGG', 'switch fluorescence ratio', 0.966),
  ('AAAGCTGGGG', 'switch fluorescence ratio', 0.981),
  ('GTTAGTGGGG', 'switch fluorescence ratio', 0.992),
  ('ATTCTTCTTA', 'switch fluorescence ratio', 1.03),
  ('TAAGAAAGGA', 'switch fluorescence ratio', 0.997),
  ('AATTAGGGGT', 'switch fluorescence ratio', 1.01),
  ('TCGGCTTAGG', 'switch fluorescence ratio', 0.987),
  ('TGAGGAAGGG', 'switch fluorescence ratio', 1.04),
  ('ATAAGGAGTG', 'switch fluorescence ratio', 0.996),
  ('TTTTAATTT', 'switch fluorescence ratio', 0.997),
  ('CGCTGGGTCA', 'switch fluorescence ratio', 1.04),
  ('TTTTCGAAAT', 'switch fluorescence ratio', 1.01),
  ('TCGGGCAGGG', 'switch fluorescence ratio', 1),
  ('TGGGTAAGCA', 'switch fluorescence ratio', 1.03),
  ('AGGAGTGGCG', 'switch fluorescence ratio', 0.978);
